Here the recorded Kb is given for each entry.
- MEASUREMENT TARGET: histamine H2 -receptor (Cavia porcellus, UniProt P47747)
- Construct: a spontaneously beating isolated portion of the guinea pig right atrium; from tissue; host or cells: guinea pig right atrium
- Sequence (P47747 whole entry): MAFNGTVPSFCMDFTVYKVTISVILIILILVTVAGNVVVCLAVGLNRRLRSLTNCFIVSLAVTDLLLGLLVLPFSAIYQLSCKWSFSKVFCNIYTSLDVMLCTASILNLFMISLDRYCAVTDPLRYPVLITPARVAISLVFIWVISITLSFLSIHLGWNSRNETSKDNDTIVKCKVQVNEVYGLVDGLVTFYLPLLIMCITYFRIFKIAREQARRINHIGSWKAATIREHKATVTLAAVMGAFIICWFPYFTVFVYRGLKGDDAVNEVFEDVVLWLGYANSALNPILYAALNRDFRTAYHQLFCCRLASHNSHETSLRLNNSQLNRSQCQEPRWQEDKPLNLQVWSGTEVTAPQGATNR
- TEST NAME: Inhibition of histamine-induced tachycardia in the isolated guinea-pig right atrium
- Type: cell-based
- CONDITION INFO: isolated guinea pig right atrium, 37° C., 60 min contact, histamine agonist; read-out: pA2 (converted)
ATTRIBUTE MEASURED: Kb (nM)

c1cc(CN2CCCCCC2)cc(OCCCNc2nc3ccccc3s2)c1 [Example 23] = 316
c1cc(CN2CCCCC2)cc(OCCCNc2nccs2)c1 [Example 9] = 39.8
Cc1cc2nc(NCCCOc3cccc(CN4CCCCC4)c3)sc2cc1C [Example 24] = 25100
